Target: HLA B*4001 (human)
Experiment: inhibition of radiolabeled probe peptide binding to purified HLA
ASSAY ENDPOINT: pIC50
The read-out pIC50 is expressed as -log10 of concentration in moles per litre.

Briefly, pIC50 measured for QENPYRTWAY [QENPYRTWAY (DENV4 2791-2800)] : 5.80

Briefly, pIC50 measured for REWCFTGERN [REWCFTGERN (DENV4 2038-2047)] : 6.30
